Please go through the items and note down their %Inh.
# Test system: TRKB;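 note: KINOMEscan kinase panel screen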
# Settings: concentration: 1 μM, replicates: in singlicate; n = 1
I'd appreciate it if you included the unit after the number.

- Input Smiles: "CCC(CC)(CC)n1cnc2c(N)ncnc21"
  %Inh: "26%"
- Input Smiles: "Fc1cccc(COc2ccc(Nc3ncnc4sc(-c5ccc[nH]5)cc34)cc2Cl)c1"
  %Inh: "0%"
- Input Smiles: "Cl.O=S(=O)(c1cccc(F)c1)c1ccc(Nc2ncnc3cc(Br)sc23)cc1Cl"
  %Inh: "0%"
- Input Smiles: "CN1CCC(n2cnc(-c3ccc(F)cc3)c2-c2ccnc(NC3CCNCC3)n2)CC1"
  %Inh: "26%"

Continue with the compound presented below.
Prompt: Please look up its %Inh: Clc1ccc(-c2cc(-c3c[nH]nc3-c3ccccn3)ccn2)cc1
Completion: 0%
